target: human FcγR I (CD64) (Homo sapiens, UniProt P12314); test: BIAcore affinity for Fc receptor FcγRI; type: binding; conditions: pH 7.4
MEASURED ATTRIBUTE: Kd (nM)
Report the value in nM with no unit label.

With human FcγR I (CD64) (Homo sapiens, UniProt P12314) as the test system, PADCEV showed Kd of 12.3

###

target: human FcγR I (CD64) (Homo sapiens, UniProt P12314); assay: BIAcore (SPR), Fc receptor captured on His capture chip, pH 7.4, ADC injected
MEASURED ATTRIBUTE: Kd (µM)
Report the value in µM with no unit label.

With human FcγR I (CD64) (Homo sapiens, UniProt P12314) as the test system, PADCEV (Enfortumab Vedotin, purchased from Seattle Genetics) (antibody) showed Kd of 0.0123

###

target: human FcγR IIb (human CD32b) (human) (UniProt P31994); assay: BIAcore (SPR), Fc receptor captured on His capture chip, pH 7.4, ADC injected
MEASURED ATTRIBUTE: Kd (µM)
Report the value in µM with no unit label.

With human FcγR IIb (human CD32b) (human) (UniProt P31994) as the test system, PADCEV (Enfortumab Vedotin, purchased from Seattle Genetics) (antibody) showed Kd of 16.3

###

biological target: FcRn (Homo sapiens, UniProt P55899); experiment: BIAcore (SPR), FcRn captured on His capture chip, pH 6.0, ADC injected
MEASURED ATTRIBUTE: Kd
Put your answer as a value accompanied by its unit after it.

With FcRn (Homo sapiens, UniProt P55899) as the test system, PADCEV (Enfortumab Vedotin, purchased from Seattle Genetics) (antibody) showed Kd of 513 nM

###

Target: recombinant extra-cellular domain of human Nectin-4 protein (Homo sapiens, UniProt Q96NY8)
Construct: recombinant extra-cellular domain of human Nectin-4 protein; purchased Novoprotein Scientific Inc
Sequence (Q96NY8 32-349 limits assumed): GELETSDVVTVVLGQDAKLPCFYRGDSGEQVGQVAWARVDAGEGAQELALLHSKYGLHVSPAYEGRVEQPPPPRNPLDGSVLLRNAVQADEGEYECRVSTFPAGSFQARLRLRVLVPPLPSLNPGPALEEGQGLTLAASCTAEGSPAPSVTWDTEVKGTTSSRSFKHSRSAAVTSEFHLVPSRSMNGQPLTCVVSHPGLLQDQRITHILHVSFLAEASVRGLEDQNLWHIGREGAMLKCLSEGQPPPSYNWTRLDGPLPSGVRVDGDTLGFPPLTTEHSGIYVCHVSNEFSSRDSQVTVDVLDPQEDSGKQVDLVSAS
Experiment: BIAcore affinity for the antigen
Format: binding
Settings: human Nectin-4, pH 7.4
Experimental: Human Nectin-4 protein (purchased from Novoprotein Scientific Inc.) was subjected to buffer exchange with a desalting column using running reagent 1 (10 mM N-(2-hydroxyethyl)piperazine-N-2 sulfonic acid, 150 mM sodium chloride, 3 mM ethylene diamine tetraacetic acid, 0.005% Tween-20, with pH adjusted to 7.4). […]
MEASURED ATTRIBUTE: Kd (nM)
Report the value in nM with no unit label.

The substance PADCEV showed Kd equal to 4.87

###

molecular target: FcRn (Homo sapiens); experiment: BIAcore affinity for Fc receptor FcRn; type: binding; conditions: pH 6.0
MEASURED ATTRIBUTE: Kd (nM)
Report the value in nM with no unit label.

The substance PADCEV showed Kd equal to 513

Cited source: patent US20240226318A1
